Here the recorded concentration at 1 h is given for each entry.
- PROTOCOL: Pharmacokinetic study in mice, snapshot PK
- Format: in vivo
- MEASUREMENT PARAMETERS: female, C57BL/6J, mouse, plasma, ip, one hour after i.p. injection of 10 mg/kg
VALUE KIND: concentration at 1 h (nM)

| MOLECULE | UNIT INFO | MEASURED RESULT |
| --- | --- | --- |
| CN[C@@H](C)C(=O)N[C@H]1CCS[C@H]2CC(C)(C)[C@@H](C(=O)N[C@H]3c4ccccc4C[C@H]3OCc3ccc(CO[C@@H]4Cc5ccccc5[C@@H]4NC(=O)[C@H]4N5C(=O)[C@@H](NC(=O)[C@H](C)NC)CCS[C@H]5CC4(C)C)cc3)N2C1=O [Compound 18g] | nM | 2680 |
| CN[C@@H](C)C(=O)N[C@H]1CCO[C@H]2CC(C)(C)[C@@H](C(=O)N[C@H]3c4ccccc4C[C@H]3OCC#CC#CCO[C@@H]3Cc4ccccc4[C@@H]3NC(=O)[C@H]3N4C(=O)[C@@H](NC(=O)[C@H](C)NC)CCO[C@H]4CC3(C)C)N2C1=O [Compound 18q] | nM | 1870 |
| CN[C@@H](C)C(=O)N[C@H]1CCS[C@H]2CC3(CC=CC3)[C@@H](C(=O)N[C@H]3c4ccccc4C[C@H]3OCC#CC#CCO[C@@H]3Cc4ccccc4[C@@H]3NC(=O)[C@H]3N4C(=O)[C@@H](NC(=O)[C@H](C)NC)CCS[C@H]4CC34CC=CC4)N2C1=O [Compound 18o] | nM | 5180 |
| CN[C@@H](C)C(=O)N[C@H]1CCS[C@H]2CC(C)(C)[C@@H](C(=O)N[C@H]3c4ccccc4C[C@H]3OCCCCCCO[C@@H]3Cc4ccccc4[C@@H]3NC(=O)[C@H]3N4C(=O)[C@@H](NC(=O)[C@H](C)NC)CCS[C@H]4CC3(C)C)N2C1=O [Compound 18b] | nM | 714 |

----------
- PROTOCOL: Pharmacokinetic study in mice, time course PK
- Assay type: in vivo
- MEASUREMENT PARAMETERS: female, C57BL/6J, mouse, IP dose 10 mg/kg, plasma
VALUE KIND: AUC(0-t) (µM·h)

| MOLECULE | VALUE KIND | UNIT INFO | MEASURED RESULT |
| --- | --- | --- | --- |
| CC[C@H](NC)C(=O)N[C@H]1CCS[C@H]2CC(C)(C)[C@@H](C(=O)N[C@H]3c4ccccc4C[C@H]3OCC#CC#CCO[C@@H]3Cc4ccccc4[C@@H]3NC(=O)[C@H]3N4C(=O)[C@@H](NC(=O)[C@H](CC)NC)CCS[C@H]4CC3(C)C)N2C1=O [Compound 18m] | AUC(0-t) | µM·h | 18.1 |

----------
Here the recorded pKi is given for each entry.
- MEASURED ON: BIR3 domain of cIAP2 (Homo sapiens)
- Sequence (Q13489 238-349 limits assumed): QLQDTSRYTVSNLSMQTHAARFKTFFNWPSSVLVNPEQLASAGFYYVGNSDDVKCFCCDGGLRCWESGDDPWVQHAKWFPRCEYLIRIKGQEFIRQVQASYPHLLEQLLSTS
- PROTOCOL: Fluorescence polarization assay
- MEASUREMENT PARAMETERS: SMAC-FITC probe, Ki calculated from IC50
pKi: −log10 of the molar value.
VALUE KIND: pKi

| COMPOUND | VALUE KIND | MEASURED RESULT |
| --- | --- | --- |
| CN[C@@H](C)C(=O)N[C@H]1CCS[C@H]2CC3(CC=CC3)[C@@H](C(=O)N[C@H]3c4ccccc4C[C@H]3OCC#CC#CCO[C@@H]3Cc4ccccc4[C@@H]3NC(=O)[C@H]3N4C(=O)[C@@H](NC(=O)[C@H](C)NC)CCS[C@H]4CC34CC=CC4)N2C1=O [Compound 18o] | pKi | 7.00 to 7.30 |
| CN[C@@H](C)C(=O)N[C@H]1CCS[C@H]2CC(C)(C)[C@@H](C(=O)N[C@H]3c4ccccc4C[C@H]3OCC#Cc3ccc(C#CCO[C@@H]4Cc5ccccc5[C@@H]4NC(=O)[C@H]4N5C(=O)[C@@H](NC(=O)[C@H](C)NC)CCS[C@H]5CC4(C)C)cc3)N2C1=O [Compound 18c] | pKi | 7.00 to 7.30 |
| CN[C@@H](C)C(=O)N[C@H]1CCS[C@H]2CC(C)(C)[C@@H](C(=O)N[C@H]3c4ccccc4C[C@H]3OCC#CC#CCO[C@@H]3Cc4ccccc4[C@@H]3NC(=O)[C@H]3N4C(=O)[C@@H](NC(=O)[C@H](C)NC)CCS[C@H]4CC3(C)C)N2C1=O [Compound 18a] | pKi | 7.00 to 7.30 |

----------
- System: MOLM 13
- PROTOCOL: Cell viability (CellTiter-Glo), 6-day compound treatment
- Format: cell-based, Human
- MEASUREMENT PARAMETERS: Homo sapiens, MOLM-13, 144 h, read-out: MOLM 13 Viability 6 d IC50
pIC50: −log10 of the molar value.

| COMPOUND | pIC50 |
| --- | --- |
| CN[C@@H](C)C(=O)N[C@H]1CCS[C@H]2CC(C)(C)[C@@H](C(=O)N[C@H]3c4ccccc4C[C@H]3OCC#CCO[C@@H]3Cc4ccccc4[C@@H]3NC(=O)[C@H]3N4C(=O)[C@@H](NC(=O)[C@H](C)NC)CCS[C@H]4CC3(C)C)N2C1=O [Compound 18j] | 5.00 to 6.00 |
| CN[C@@H](C)C(=O)N[C@H]1CCS[C@H]2CC(C)(C)[C@@H](C(=O)N[C@H]3c4ccccc4C[C@H]3OCC#CC#CCO[C@@H]3Cc4ccccc4[C@@H]3NC(=O)[C@H]3N4C(=O)[C@@H](NC(=O)[C@H](C)NC)CCS[C@H]4CC3(C)C)N2C1=O [Compound 18a] | 7.00 to 8.00 |
| CN[C@@H](C)C(=O)N[C@H]1CCS[C@H]2CC(C)(C)[C@@H](C(=O)N[C@H]3c4ccccc4C[C@H]3OCc3ccc(-c4ccc(CO[C@@H]5Cc6ccccc6[C@@H]5NC(=O)[C@H]5N6C(=O)[C@@H](NC(=O)[C@H](C)NC)CCS[C@H]6CC5(C)C)cc4)cc3)N2C1=O [Compound 18f] | 6.00 to 7.00 |
| CC[C@H](NC)C(=O)N[C@H]1CCS[C@H]2CC(C)(C)[C@@H](C(=O)N[C@H]3c4ccccc4C[C@H]3OCC#CC#CCO[C@@H]3Cc4ccccc4[C@@H]3NC(=O)[C@H]3N4C(=O)[C@@H](NC(=O)[C@H](CC)NC)CCS[C@H]4CC3(C)C)N2C1=O [Compound 18m] | 7.00 to 8.00 |

----------
Here the recorded IC50 is given for each entry.
- System: AML-SH-075
- PROTOCOL: Cell viability in patient derived AML samples (CellTiterGlo, 72 h)
- Assay type: cell-based, human
- MEASUREMENT PARAMETERS: Homo sapiens, 72 h, read-out: AML-SH-075 IC50

| COMPOUND | MEASURED ON | IC50 |
| --- | --- | --- |
| CN[C@@H](C)C(=O)N[C@H]1CCS[C@H]2CC(C)(C)[C@@H](C(=O)N[C@H]3c4ccccc4C[C@H]3OCC#Cc3ccc(C#CCO[C@@H]4Cc5ccccc5[C@@H]4NC(=O)[C@H]4N5C(=O)[C@@H](NC(=O)[C@H](C)NC)CCS[C@H]5CC4(C)C)cc3)N2C1=O [Compound 18c] | AML-SH-075 | 1000 to 10000 nM |
| CN[C@@H](C)C(=O)N[C@H]1CCS[C@H]2CC(C)(C)[C@@H](C(=O)N[C@H]3c4ccccc4C[C@H]3OCc3ccc(CO[C@@H]4Cc5ccccc5[C@@H]4NC(=O)[C@H]4N5C(=O)[C@@H](NC(=O)[C@H](C)NC)CCS[C@H]5CC4(C)C)cc3)N2C1=O [Compound 18g] | AML-SH-075 | 10 to 100 nM |
| CC[C@H](NC)C(=O)N[C@H]1CCS[C@H]2CC(C)(C)[C@@H](C(=O)N[C@H]3c4ccccc4C[C@H]3OCC#CC#CCO[C@@H]3Cc4ccccc4[C@@H]3NC(=O)[C@H]3N4C(=O)[C@@H](NC(=O)[C@H](CC)NC)CCS[C@H]4CC3(C)C)N2C1=O [Compound 18m] | AML-SH-075 | 10 to 100 nM |
| CN[C@@H](C)C(=O)N[C@H]1CCS[C@H]2CC(C)(C)[C@@H](C(=O)N[C@H]3c4ccccc4C[C@H]3OCC#CC#CCO[C@@H]3Cc4ccccc4[C@@H]3NC(=O)[C@H]3N4C(=O)[C@@H](NC(=O)[C@H](C)NC)CCS[C@H]4CC3(C)C)N2C1=O [Compound 18a] | AML-SH-075 | 10 to 100 nM |
| CN[C@@H](C)C(=O)N[C@H]1CCO[C@H]2CC(C)(C)[C@@H](C(=O)N[C@H]3c4ccccc4C[C@H]3OCC#CC#CCO[C@@H]3Cc4ccccc4[C@@H]3NC(=O)[C@H]3N4C(=O)[C@@H](NC(=O)[C@H](C)NC)CCO[C@H]4CC3(C)C)N2C1=O [Compound 18q] | AML-SH-075 | 10 to 100 nM |
| CN[C@@H](C)C(=O)N[C@H]1CCS[C@H]2CC(C)(C)[C@@H](C(=O)N[C@H]3c4ccccc4C[C@H]3OCC#Cc3ccc(CO[C@@H]4Cc5ccccc5[C@@H]4NC(=O)[C@H]4N5C(=O)[C@@H](NC(=O)[C@H](C)NC)CCS[C@H]5CC4(C)C)cc3)N2C1=O [Compound 18e] | AML-SH-075 | 1000 to 10000 nM |
